Ki values by entry
- system.name: endogenous human UII receptor (Homo sapiens, UniProt Q9UKP6)
- Sequence (Q9UKP6 whole entry): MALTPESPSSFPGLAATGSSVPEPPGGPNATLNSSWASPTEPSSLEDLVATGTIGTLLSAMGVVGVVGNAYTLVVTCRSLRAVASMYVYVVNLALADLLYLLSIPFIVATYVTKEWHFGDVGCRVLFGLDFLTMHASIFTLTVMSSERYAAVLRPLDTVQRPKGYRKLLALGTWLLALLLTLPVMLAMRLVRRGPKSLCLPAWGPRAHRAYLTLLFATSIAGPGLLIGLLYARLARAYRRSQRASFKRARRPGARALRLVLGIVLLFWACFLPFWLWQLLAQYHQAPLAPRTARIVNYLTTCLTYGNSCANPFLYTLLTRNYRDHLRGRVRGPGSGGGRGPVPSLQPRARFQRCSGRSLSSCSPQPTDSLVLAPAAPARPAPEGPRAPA
- assay.info: Human Radioligand Binding Assay ((^125I)-U-II binding to human skeletal muscle myoblasts)
The answer consists of two parts: a number and, after it, its unit.

Record excerpt, results attached:
{"columns": ["compound", "result"],
 "data": [
  ["COc1ccc([C@@H](CCCNS(=O)(=O)c2cn(C)nc2C)N2C(=O)c3cccc(N4CCN([C@H](C)c5ccccc5)CC4)c3C2=O)cc1OC", "0.11 µM"],
  ["COc1ccc(C(CCCNS(=O)(=O)c2ccccc2)N2C(=O)c3cccc(N4CCN([C@H](C)c5ccccc5)CC4)c3C2=O)cc1OC (stereo partly drawn)", "0.097 µM"]
]}

For the compound COc1ccc(C(CCCNS(=O)(=O)c2cccnc2)N2C(=O)c3cccc(N4CCN([C@H](C)c5ccccc5)CC4)c3C2=O)cc1OC (stereo partly drawn) , report Ki.
0.08 µM

* * *

inhibition at 50 µM values by entry
- system.name: rat GPR14 (U-II receptor) (Rattus norvegicus, UniProt P49684)
- Construct: expressed in transfected cells
- Sequence (P49684 1-386): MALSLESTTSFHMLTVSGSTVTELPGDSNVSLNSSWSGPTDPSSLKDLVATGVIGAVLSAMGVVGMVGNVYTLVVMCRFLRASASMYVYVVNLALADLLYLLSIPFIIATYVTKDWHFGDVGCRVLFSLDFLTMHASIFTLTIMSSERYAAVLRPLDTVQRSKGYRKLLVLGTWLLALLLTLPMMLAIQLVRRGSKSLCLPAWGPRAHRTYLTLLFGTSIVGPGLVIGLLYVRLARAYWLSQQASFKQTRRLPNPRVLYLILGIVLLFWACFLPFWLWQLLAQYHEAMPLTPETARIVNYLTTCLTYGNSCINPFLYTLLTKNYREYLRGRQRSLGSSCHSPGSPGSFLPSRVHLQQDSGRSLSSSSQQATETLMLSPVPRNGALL
- assay.info: Rat UII Calcium Mobilization FLIPR Assay
- Format: cell-based
- run.conditions: CHO, 5 min, 50 μM compound; agonist-induced Ca2+ mobilization (FLIPR), CHO cells with rat UII receptor; read-out: % I @ 50
Value expressed in %; do not type the unit.

{"columns": ["molecule", "quantity.name", "result"],
 "data": [
  ["O=C1c2cccc(N3CC4CCC(C3)N4Cc3ccccc3)c2C(=O)N1Cc1ccncc1", "inhibition at 50 µM", 101]
]}

For the molecule COc1ccc(C(CCCNS(=O)(=O)c2cccs2)N2C(=O)c3cccc(N4CCN([C@H](C)c5ccccc5)CC4)c3C2=O)cc1OC (some centres unmarked) , report inhibition at 50 µM.
99

For the molecule COc1ccc(C(CN)N2C(=O)c3cccc(N4CCN([C@H](C)c5ccccc5)CC4)c3C2=O)cc1OC (some centres unmarked) , report inhibition at 50 µM.
98

* * *

- system.name: rat GPR14 (U-II receptor) (Rattus norvegicus, UniProt P49684)
- Construct: expressed in transfected cells
- assay.info: Rat UII Calcium Mobilization FLIPR Assay
- Type: cell-based
- run.conditions: average value for the compound tested; read-out: Rat UII FLIPR Average IC50
quantity.name: IC50 (nM)
Value expressed in nM; do not type the unit.

Record excerpt, results attached:
{"columns": ["molecule", "IC50, nM"],
 "data": [
  ["COC(=O)c1sccc1S(=O)(=O)NCCCC(c1ccc(OC)c(OC)c1)N1C(=O)c2cccc(N3CCN([C@H](C)c4ccccc4)CC3)c2C1=O (stereo partly drawn) [Cpd 94]", 65],
  ["COc1ccc([C@@H](CCCNc2ccccn2)N2C(=O)c3cccc(N4CCN([C@H](C)c5ccccc5)CC4)c3C2=O)cc1OC [Cpd 142]", 97]
]}

Please find the next molecule below.
Give IC50 for this entry on rat GPR14 (U-II receptor) (Rattus norvegicus, UniProt P49684): CCN1CCN(c2cccc3c2C(=O)N([C@H](CCCOCc2c(F)cccc2F)c2ccc(OC)c(OC)c2)C3=O)CC1 [Cpd 227]
160
